Cited source: paper PMC4336329

study-target: human ether-à-go-go-related gene (hERG) potassium channel (human);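 further: peak tail current of the secondary pulse compared with the same well before compound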
Sequence (Q12809 whole entry, looked up): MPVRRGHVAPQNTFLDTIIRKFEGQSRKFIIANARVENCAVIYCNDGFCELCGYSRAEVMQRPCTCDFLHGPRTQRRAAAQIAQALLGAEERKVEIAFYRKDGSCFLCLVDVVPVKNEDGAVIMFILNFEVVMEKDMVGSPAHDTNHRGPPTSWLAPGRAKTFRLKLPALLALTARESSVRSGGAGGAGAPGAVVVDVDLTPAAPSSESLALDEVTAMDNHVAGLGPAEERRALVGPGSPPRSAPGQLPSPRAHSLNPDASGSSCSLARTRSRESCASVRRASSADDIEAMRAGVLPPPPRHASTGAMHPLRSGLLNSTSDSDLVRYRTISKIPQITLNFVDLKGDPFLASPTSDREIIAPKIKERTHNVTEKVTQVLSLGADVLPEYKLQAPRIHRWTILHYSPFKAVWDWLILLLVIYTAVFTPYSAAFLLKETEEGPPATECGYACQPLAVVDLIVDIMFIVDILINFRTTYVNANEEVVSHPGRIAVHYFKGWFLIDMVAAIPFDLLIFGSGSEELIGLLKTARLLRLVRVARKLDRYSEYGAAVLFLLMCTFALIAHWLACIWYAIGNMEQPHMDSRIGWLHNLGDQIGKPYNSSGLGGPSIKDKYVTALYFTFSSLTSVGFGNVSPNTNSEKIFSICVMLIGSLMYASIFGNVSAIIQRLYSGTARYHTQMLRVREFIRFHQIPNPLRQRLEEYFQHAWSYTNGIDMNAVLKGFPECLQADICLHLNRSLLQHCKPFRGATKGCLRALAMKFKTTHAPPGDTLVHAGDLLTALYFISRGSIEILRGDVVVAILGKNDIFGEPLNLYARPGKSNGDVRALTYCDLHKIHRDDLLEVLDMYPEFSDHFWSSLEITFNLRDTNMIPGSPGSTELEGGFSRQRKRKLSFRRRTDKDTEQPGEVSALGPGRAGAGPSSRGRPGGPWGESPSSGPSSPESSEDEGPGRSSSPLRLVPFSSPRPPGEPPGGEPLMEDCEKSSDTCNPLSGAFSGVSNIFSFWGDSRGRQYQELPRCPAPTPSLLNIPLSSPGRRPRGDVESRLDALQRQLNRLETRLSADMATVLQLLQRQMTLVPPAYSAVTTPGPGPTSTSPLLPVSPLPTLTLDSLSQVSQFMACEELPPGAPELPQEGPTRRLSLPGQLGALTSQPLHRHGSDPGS
protocol-details: primary screen, population patch clamp on CHO cells stably expressing hERG; higher = less effect of the substance
Out of some 310,000 compounds screened, about 14,000 (4.5%) showed an effect of 50% or more. Effects have a minus sign here. The sample as a whole holds a higher share of strong results than the screen did.
Let's look at some molecules and their measured hERG current change (%, negative = inhibition) at 10uM.
# unit: % | format: bare number

Below, each entry is followed by its recorded hERG current change (%, negative = inhibition) at 10uM result.
[[record]]
molecule = "O=C(NC(=S)Nc1ccccc1N1CCCCC1)c1cccs1"
study_target = "human ether-à-go-go-related gene (hERG) potassium channel (human)"
recorded_measurement = 6.21

[[record]]
molecule = "Cc1ccc(S(=O)(=O)NCCC2(C(C)C)CCOC(C)(C)C2)cc1 (stereo not shown)"
study_target = "human ether-à-go-go-related gene (hERG) potassium channel (human)"
recorded_measurement = -17.9

[[record]]
molecule = "CCC(=O)N1CCN(c2ccccc2NC(=O)c2cccs2)CC1"
study_target = "human ether-à-go-go-related gene (hERG) potassium channel (human)"
recorded_measurement = -50.4

[[record]]
molecule = "CC1CCN(c2ccccc2NC(=S)NC(=O)c2cccs2)CC1"
study_target = "human ether-à-go-go-related gene (hERG) potassium channel (human)"
recorded_measurement = -50.2

[[record]]
molecule = "C/C(N)=C(/C#N)C(=O)CSc1cc(C)c2cc(C)cc(C)c2n1"
study_target = "human ether-à-go-go-related gene (hERG) potassium channel (human)"
recorded_measurement = 2.54


Lookup: # get_value(readout='hERG current change (%, negative = inhibition) at 10uM', item= COC(=O)CCCc1nc2ccccc2s1 )
Found: 8.7

Lookup: # get_value(readout='hERG current change (%, negative = inhibition) at 10uM', item= CC(=O)N1CCN(c2ccccc2NC(=O)c2cccs2)CC1 )
Found: -43.8

Lookup: # get_value(readout='hERG current change (%, negative = inhibition) at 10uM', item= COc1ccc(NC(=O)C2CCCN(S(=O)(=O)c3ccc4c(c3)CC(C)N4C(C)=O)C2)cc1 (stereo not shown) )
Found: 24.3

Lookup: # get_value(readout='hERG current change (%, negative = inhibition) at 10uM', item= O=C(NC(=S)Nc1ccccc1N1CCCC1)c1cccs1 )
Found: 7.27

Lookup: # get_value(readout='hERG current change (%, negative = inhibition) at 10uM', item= O=C1CS/C(=N/N=C/c2ccccc2)N1c1ccc(O)cc1 )
Found: 17.6
